Test: Inhibition of hepatitis C virus RNA dependent NS5B polymerase
Parameters: species or system Hepacivirus hominis
Parameter: IC50. Scope: all listed entries.
All answers are understood in µM, so give the number only.

CN1C=C(/N=N/c2cccc([N+](=O)[O-])c2)CCC1 = 30

With those in mind, consider the next compound.
Prompt: State the recorded IC50 for this entry: `CN1C=C(/N=N/c2cccc3ccccc23)CCC1`
Completion: 55

====

Experiment: Cytotoxicity against […] cells by MTT assay
Type: cell-based
CC50 values for the molecules below.
Respond with the bare value in µM.

CC(=O)Nc1ccc(-c2nc3cc(Cl)c(Cl)cc3[nH]2)cc1 = 58

Prompt: CC50 for `Nc1ccc(-c2nc3cc([N+](=O)[O-])ccc3[nH]2)cc1` ?
Completion: 79
